Listing: CC50 at 24 h of selected compounds
test: Cytotoxicity of lipophenols (MTT cell viability, 24 h); format: cell-based, human; conditions: human, ARPE-19 cells; 24 h, serum free medium, 0–160 µM, MTT; mean ± SD, n ≥ 3; read-out: ARPE-19 CC50 (concentration of lipophenol killing 50% of ARPE-19 cells)
MEASUREMENT LABEL: CC50 at 24 h

{"COMPOUND": "CCCCC/C=C\\C/C=C\\CCCCCCCC(=O)Oc1cc(O)cc(O)c1", "MEASUREMENT LABEL": "CC50 at 24 h", "RESULT": "> 160 µM"}
{"COMPOUND": "Oc1cc(O)cc(O)c1 [Phloroglucinol, phloroglucinol, reference compound]", "MEASUREMENT LABEL": "CC50 at 24 h", "RESULT": "> 160 µM"}
{"COMPOUND": "CCCCC/C=C\\C/C=C\\CCCCCCCC(=O)Oc1ccc(/C=C/c2cc(O)cc(O)c2)cc1", "MEASUREMENT LABEL": "CC50 at 24 h", "RESULT": "> 160 µM"}
{"COMPOUND": "CC/C=C\\C/C=C\\C/C=C\\CCCCCCCC(=O)Oc1cc(O)c2c(=O)c(O)c(-c3ccc(O)c(O)c3)oc2c1", "MEASUREMENT LABEL": "CC50 at 24 h", "RESULT": "> 160 µM"}
{"COMPOUND": "O=c1c(O)c(-c2ccc(O)c(O)c2)oc2cc(O)cc(O)c12 [Quercetin, quercetin, reference compound]", "MEASUREMENT LABEL": "CC50 at 24 h", "RESULT": "111 µM"}

====

Experiment: Cytotoxicity of lipophenols (MTT cell viability, 24 h)
Format: cell-based, human
Conditions: human, ARPE-19 cells; up to 160 µM, Figure 8; 100% = non-treated control cells
Protocol: Cell viability was determined by MTT colorimetric assay. The cells were incubated for 2 h with MTT reagent (0.5 mg/mL). During this incubation time, dehydrogenases of the living cells reduce the MTT to insoluble purple formazan. The absorbance at 570 nm and 655 nm of individual wells of the cell was measured using a microplate reader (BioRad 550, USA). […] The percentage of the viable cells was calculated as [(OD570 sample − OD655 sample)/(OD570 control − OD655 control)] × 100%. […]

{"COMPOUND STRING": "CC/C=C\\C/C=C\\C/C=C\\CCCCCCCC(=O)Oc1cc(O)c2c(=O)c(O)c(-c3ccc(O)c(O)c3)oc2c1", "viability at 24 h (%)": 128}

====

Catalogue of compounds with associated IC50
Tested on: ARPE-19 cells
Experiment: Protection against ROS production (DCFDA probe, H2O2 stress)
Assay type: cell-based, human
Details: Homo sapiens, ARPE-19, 1 h pre-incubation, H2O2 600 µM for 4 h, DCFDA; mean ± SD, n ≥ 3; read-out: ROS production IC50 (concentration needed to inhibit 50% of the ROS induced by H2O2)
Experimental: ROS activity was measured in ARPE-19 cells with dichlorofluorescein diacetate (DCFDA) reagent. […] Then, H2O2 was added to a final concentration of 600 µM for 4 h, followed by the measurement of DCF production by fluorescence spectroscopy with excitation wavelength at 485 nm and emission wavelength at 535 nm. […] The percentage of ROS produced was calculated as [(fluorescence of sample)/(fluorescence of control)] × 100%. […] When a dose-dependent inhibition was observed, IC50 was calculated.
MEASUREMENT LABEL: IC50 (µM)

{"COMPOUND": "CC/C=C\\C/C=C\\C/C=C\\CCCCCCCC(=O)Oc1cc(O)c2c(=O)c(O)c(-c3ccc(O)c(O)c3)oc2c1", "ASSAY TARGET": "ARPE-19 cells", "OPERATOR SYMBOL": "=", "MEASURED NUMBER": 9.44}
{"COMPOUND": "CCCCC/C=C\\C/C=C\\CCCCCCCC(=O)O[C@H]1Cc2c(O)cc(O)cc2O[C@@H]1c1ccc(O)c(O)c1", "ASSAY TARGET": "ARPE-19 cells", "OPERATOR SYMBOL": "=", "MEASURED NUMBER": 10.6}
{"COMPOUND": "CCCCC/C=C\\C/C=C\\CCCCCCCC(=O)Oc1cc(O)cc(O)c1", "ASSAY TARGET": "ARPE-19 cells", "OPERATOR SYMBOL": ">", "MEASURED NUMBER": 80}
{"COMPOUND": "Oc1cc(O)c2c(c1)O[C@H](c1ccc(O)c(O)c1)[C@@H](O)C2 [(+)-catechin, reference compound]", "ASSAY TARGET": "ARPE-19 cells", "OPERATOR SYMBOL": "=", "MEASURED NUMBER": 5.93}
{"COMPOUND": "Oc1ccc(C=Cc2cc(O)cc(O)c2)cc1 [Resveratrol, 3,4′,5-trihydroxystilbene, reference compound]", "ASSAY TARGET": "ARPE-19 cells", "OPERATOR SYMBOL": "=", "MEASURED NUMBER": 7.4}
{"COMPOUND": "O=c1c(O)c(-c2ccc(O)c(O)c2)oc2cc(O)cc(O)c12 [Quercetin, quercetin, reference compound]", "ASSAY TARGET": "ARPE-19 cells", "OPERATOR SYMBOL": "=", "MEASURED NUMBER": 6.82}
{"COMPOUND": "Oc1cc(O)cc(O)c1 [Phloroglucinol, phloroglucinol, reference compound]", "ASSAY TARGET": "ARPE-19 cells", "OPERATOR SYMBOL": "=", "MEASURED NUMBER": 10.2}
{"COMPOUND": "CCCCC/C=C\\C/C=C\\CCCCCCCC(=O)Oc1ccc(/C=C/c2cc(O)cc(O)c2)cc1", "ASSAY TARGET": "ARPE-19 cells", "OPERATOR SYMBOL": ">", "MEASURED NUMBER": 80}
